# reported log10(MIC); entries follow
Tested on: Streptococcus pneumoniae
Experiment: Antibacterial activity against MLSB-resistant Streptococcus pneumoniae 700906 expressing erm by broth-microdilution method
Type: functional
# log10 transformed; quantity=MIC; unit=µg/mL

CC[C@H]1OC(=O)[C@H](C)[C@H]2OC/C(=N\Oc3ccc4ccccc4c3)CCO[C@](C)(C[C@@H](C)C(=O)[C@H](C)[C@H]3NC(=O)O[C@@]31C)[C@H](O[C@@H]1O[C@H](C)C[C@H](N(C)C)[C@H]1O)[C@H]2C : -0.30
CC[C@H]1OC(=O)[C@H](C)[C@H]2OC/C(=N\Oc3ccc(Cl)cc3)CCO[C@](C)(C[C@@H](C)C(=O)[C@H](C)[C@H]3NC(=O)O[C@@]31C)[C@H](O[C@@H]1O[C@H](C)C[C@H](N(C)C)[C@H]1O)[C@H]2C : 1.20
CC[C@H]1OC(=O)[C@H](C)[C@H]2OC/C(=N\Oc3cccnc3)CCO[C@](C)(C[C@@H](C)C(=O)[C@H](C)[C@H]3NC(=O)O[C@@]31C)[C@H](O[C@@H]1O[C@H](C)C[C@H](N(C)C)[C@H]1O)[C@H]2C : 1.20
CC[C@H]1OC(=O)[C@H](C)[C@H]2OC/C(=N\OCCCc3ccccc3)CCO[C@](C)(C[C@@H](C)C(=O)[C@H](C)[C@H]3NC(=O)O[C@@]31C)[C@H](O[C@@H]1O[C@H](C)C[C@H](N(C)C)[C@H]1O)[C@H]2C : 0.60
CC[C@H]1OC(=O)[C@H](C)[C@H]2OC/C(=N\Oc3ccc(-c4ccccc4)cc3)CCO[C@](C)(C[C@@H](C)C(=O)[C@H](C)[C@H]3NC(=O)O[C@@]31C)[C@H](O[C@@H]1O[C@H](C)C[C@H](N(C)C)[C@H]1O)[C@H]2C : -0.60

Record CC[C@H]1OC(=O)[C@H](C)[C@H]2OC/C(=N\Oc3cccc(Cl)c3)CCO[C@](C)(C[C@@H](C)C(=O)[C@H](C)[C@H]3NC(=O)O[C@@]31C)[C@H](O[C@@H]1O[C@H](C)C[C@H](N(C)C)[C@H]1O)[C@H]2C ; system Streptococcus pneumoniae; log10(MIC) = 0.90

Record CC[C@H]1OC(=O)[C@H](C)[C@H]2OC/C(=N\OCCCCCc3ccccc3)CCO[C@](C)(C[C@@H](C)C(=O)[C@H](C)[C@H]3NC(=O)O[C@@]31C)[C@H](O[C@@H]1O[C@H](C)C[C@H](N(C)C)[C@H]1O)[C@H]2C ; system Streptococcus pneumoniae; log10(MIC) = 0.90

Record CC[C@H]1OC(=O)[C@H](C)[C@H]2OC/C(=N\Oc3ccccc3-c3ccccc3)CCO[C@](C)(C[C@@H](C)C(=O)[C@H](C)[C@H]3NC(=O)O[C@@]31C)[C@H](O[C@@H]1O[C@H](C)C[C@H](N(C)C)[C@H]1O)[C@H]2C ; system Streptococcus pneumoniae; log10(MIC) = 1.20

Record CC[C@H]1OC(=O)[C@H](C)[C@H]2OC/C(=N\OCCc3ccccc3)CCO[C@](C)(C[C@@H](C)C(=O)[C@H](C)[C@H]3NC(=O)O[C@@]31C)[C@H](O[C@@H]1O[C@H](C)C[C@H](N(C)C)[C@H]1O)[C@H]2C ; system Streptococcus pneumoniae; log10(MIC) = 1.20

Record CC[C@H]1OC(=O)[C@H](C)[C@H]2OC/C(=N\Oc3ccccc3Cl)CCO[C@](C)(C[C@@H](C)C(=O)[C@H](C)[C@H]3NC(=O)O[C@@]31C)[C@H](O[C@@H]1O[C@H](C)C[C@H](N(C)C)[C@H]1O)[C@H]2C ; system Streptococcus pneumoniae; log10(MIC) = 1.51
